Assign IC50 to each entry below.
Tested on: SMMC-7721
assay.comment: Cytotoxicity against human SMMC7721 cells assessed as growth inhibition after 48 hrs by MTS assay
Format: functional, cell-based
condition: SMMC-7721, 48 h
Dear colleague, please return just the value in µM, with no unit written.

Summary line: C=C1C(=O)[C@@]23[C@H](O)C[C@H]4[C@@](C)(CCC[C@]4(C)C=O)[C@@H]2C[C@H](O)[C@@H]1[C@H]3O [MACROCALYXIN C] , SMMC-7721, reported IC50 = 4

Param item: C=C1C(=O)[C@@]23CC(=O)[C@@H]4C(C)(C)CCC[C@@]4(C)[C@@H]2[C@@H](O)C[C@@H]1[C@H]3O ; param system: SMMC-7721; output IC50: 0.8

Form field, IC50 with SMMC-7721, item C=C1C(=O)[C@@]23C[C@H](O)[C@@H]4C(C)(C)CCC[C@@]4(C)[C@@H]2[C@@H](O)C[C@@H]1[C@H]3O : 5.1

SMMC-7721 assay, molecule C=C1C(=O)[C@@]23[C@H](O)C[C@@H]4C(C)(C)CCC[C@@]4(C)[C@@H]2C[C@H](O)[C@@H]1[C@H]3O [ISOSCOPARIN L] , recorded IC50 = 1.2

---

Test system: SMMC-7721
assay.comment: Cytotoxicity against human SMMC7721 cells assessed as growth inhibition after 48 hrs by MTS assay
Format: functional, cell-based
condition: SMMC-7721, 48 h
Give measured IC50 for each item. Keep answers brief.
Please state the figure in µM; there is no need to write the unit.

Kindly note: SMMC-7721, C=C1C(=O)[C@@]23CC[C@@H]4[C@@](C)(CO)[C@H](O)CC[C@@]4(C)[C@@H]2C[C@H](O)[C@@H]1C3 , IC50 value reported: 4.1

For C=C1C(=O)[C@@]23[C@H](O)C[C@@H]4C(C)(C)CCC[C@@]4(C)[C@@H]2[C@@H](O)C[C@@H]1[C@H]3O [PHYLLOSTACHYSIN F] on SMMC-7721, measured IC50 was 2.1

Reported SMMC-7721 IC50 for item C=C1C(=O)[C@]23[C@H](O)[C@H]1[C@@H](O)[C@H](O)[C@H]2[C@]1(C)CCCC(C)(C)[C@H]1C[C@H]3OC(C)=O was 5.8

The observed IC50 for C=C1C(=O)[C@@]23[C@H](O)C[C@@H]4[C@@](C)(COC(C)=O)CCC[C@@]4(C)[C@@H]2C[C@H](O)[C@@H]1[C@H]3O [ALBOPILOSIN A] when tested with SMMC-7721 stands at 1.4

Measured IC50 (SMMC-7721), entry C=C1C(=O)[C@]23C[C@H]1[C@@H](O)C[C@H]2[C@]1(C)CCC[C@](C)(CO)[C@H]1C[C@H]3O : 4

Considering C=C1C(=O)[C@@]23[C@H](O)C[C@@H]4[C@@](C)(CO)CCC[C@@]4(C)[C@@H]2CC[C@@H]1[C@H]3O [EXCISANIN C] , its IC50 with SMMC-7721 was recorded as 2.7

# value of IC50, SMMC-7721, item C=C1C(=O)[C@@]23CC[C@H]4[C@@](C)(CCC[C@]4(C)C=O)[C@@H]2C[C@H](O)[C@@H]1[C@H]3O = 1.4

Hey, SMMC-7721 data for C=C1C(=O)[C@]23C[C@H]1CC[C@H]2[C@]1(CO)CCC[C@](C)(CO)[C@H]1C[C@H]3O : IC50 came out at 7.1
